Biological target: Nitric oxide synthase 3 (Homo sapiens)
Sequence (P29474 whole entry): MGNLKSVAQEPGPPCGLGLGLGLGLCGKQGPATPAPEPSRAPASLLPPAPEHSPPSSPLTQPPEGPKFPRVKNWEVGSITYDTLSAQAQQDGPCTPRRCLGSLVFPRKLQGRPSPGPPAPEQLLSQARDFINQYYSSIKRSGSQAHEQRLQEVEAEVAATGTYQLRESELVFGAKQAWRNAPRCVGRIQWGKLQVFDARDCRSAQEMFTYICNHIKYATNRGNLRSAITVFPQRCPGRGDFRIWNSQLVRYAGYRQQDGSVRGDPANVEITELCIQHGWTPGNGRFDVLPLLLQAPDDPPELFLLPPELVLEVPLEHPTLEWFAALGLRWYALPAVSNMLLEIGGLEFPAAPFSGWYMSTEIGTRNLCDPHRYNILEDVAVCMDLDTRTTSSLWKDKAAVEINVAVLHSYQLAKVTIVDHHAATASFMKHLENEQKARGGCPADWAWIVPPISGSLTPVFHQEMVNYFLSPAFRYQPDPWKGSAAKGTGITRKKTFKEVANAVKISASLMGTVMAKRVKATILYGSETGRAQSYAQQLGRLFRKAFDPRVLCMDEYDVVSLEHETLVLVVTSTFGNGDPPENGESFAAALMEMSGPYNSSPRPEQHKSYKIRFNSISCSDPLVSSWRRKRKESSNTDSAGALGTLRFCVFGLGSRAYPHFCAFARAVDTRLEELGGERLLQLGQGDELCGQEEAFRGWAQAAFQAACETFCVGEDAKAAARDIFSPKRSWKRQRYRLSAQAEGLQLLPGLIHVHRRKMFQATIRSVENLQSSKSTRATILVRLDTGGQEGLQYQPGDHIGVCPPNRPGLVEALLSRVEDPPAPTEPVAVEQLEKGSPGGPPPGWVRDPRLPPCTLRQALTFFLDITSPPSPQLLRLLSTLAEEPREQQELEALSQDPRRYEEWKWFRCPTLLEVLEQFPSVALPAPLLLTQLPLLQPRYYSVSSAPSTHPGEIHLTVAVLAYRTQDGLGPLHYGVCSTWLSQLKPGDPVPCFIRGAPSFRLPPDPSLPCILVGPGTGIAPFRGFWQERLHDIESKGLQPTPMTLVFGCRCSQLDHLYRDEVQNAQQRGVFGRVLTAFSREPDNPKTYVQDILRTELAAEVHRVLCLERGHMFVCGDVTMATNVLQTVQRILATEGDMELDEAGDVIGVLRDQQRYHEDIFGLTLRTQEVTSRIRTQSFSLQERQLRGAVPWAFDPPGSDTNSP
Experiment: Inhibition of human eNOS expressed in HEK293 cells assessed as NO production by transient transfection assay
measuredMetric: EC50 (µM)

// known answers, use as guide
>>> numericvalue("Cc1noc(C)c1C(=O)N(Cc1cc(=O)[nH]c2c(F)c(F)ccc12)c1cccc(Cl)c1")
1.2
>>> numericvalue("CC1=C(C(=O)N(Cc2cc(=O)[nH]c3c(F)c(F)ccc23)c2cccc(Cl)c2)CNCC1")
2.5

A: Cc1ccncc1C(=O)N(Cc1cc(=O)[nH]c2c(F)cccc12)c1cccc(Cl)c1
B: Cc1ncsc1C(=O)N(Cc1cc(=O)[nH]c2c(F)cccc12)c1cccc(Cl)c1
## Task In terms of reported EC50, does A or B have the smaller number? Field: selected label. Fill in the label of the entry you choose.
## Result B
(B: 26 µM, A: 41 µM)

Every entry's value here was drawn from ChEMBL document CHEMBL1138485.
